Record form. Attribute: pKd. Fill in for each entry.
Biological target: human CD33 R69G (human) (UniProt P20138)
Sequence (P20138 18-259 R69G): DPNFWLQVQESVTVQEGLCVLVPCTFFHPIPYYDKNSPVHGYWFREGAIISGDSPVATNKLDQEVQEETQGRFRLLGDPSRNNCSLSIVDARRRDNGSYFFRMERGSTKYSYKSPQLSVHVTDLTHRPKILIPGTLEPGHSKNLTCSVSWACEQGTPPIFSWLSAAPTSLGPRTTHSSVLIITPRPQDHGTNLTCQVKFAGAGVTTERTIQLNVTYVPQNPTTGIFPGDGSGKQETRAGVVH
Assay: SPR, Fab captured, 37C
Numbers only, as −log10 of the molar value.

The following binders have reported results that may help.
>  <Binder>
ADI-10159 Fab (Fab, V domains shown) VH: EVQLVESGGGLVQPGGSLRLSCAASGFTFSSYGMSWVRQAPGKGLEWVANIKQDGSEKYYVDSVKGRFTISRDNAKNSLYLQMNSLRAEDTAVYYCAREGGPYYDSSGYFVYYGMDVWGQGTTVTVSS VL: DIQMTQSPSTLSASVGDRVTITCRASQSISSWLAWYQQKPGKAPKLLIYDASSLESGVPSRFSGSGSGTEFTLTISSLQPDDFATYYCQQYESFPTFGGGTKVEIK

>  <pKd>
8.25

$$$$
>  <Binder>
ADI-11830 Fab (Fab, V domains shown) VH: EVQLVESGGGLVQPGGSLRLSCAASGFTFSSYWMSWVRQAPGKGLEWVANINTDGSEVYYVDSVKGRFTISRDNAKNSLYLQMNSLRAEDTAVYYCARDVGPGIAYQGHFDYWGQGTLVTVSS VL: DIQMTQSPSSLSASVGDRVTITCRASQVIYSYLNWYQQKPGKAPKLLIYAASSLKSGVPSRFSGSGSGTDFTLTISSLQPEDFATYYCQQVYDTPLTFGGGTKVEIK

>  <pKd>
8.53

$$$$
>  <Binder>
ADI-11815 Fab (Fab, V domains shown) VH: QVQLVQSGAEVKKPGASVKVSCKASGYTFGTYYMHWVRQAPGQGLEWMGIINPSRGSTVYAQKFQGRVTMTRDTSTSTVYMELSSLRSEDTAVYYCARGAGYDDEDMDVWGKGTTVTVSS VL: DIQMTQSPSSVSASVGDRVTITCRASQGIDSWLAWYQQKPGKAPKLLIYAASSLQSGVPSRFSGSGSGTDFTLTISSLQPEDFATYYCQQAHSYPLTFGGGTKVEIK

>  <pKd>
8.36

$$$$

Batch: pKd for all items listed.
1. ADI-11807 Fab (Fab, V domains shown) VH: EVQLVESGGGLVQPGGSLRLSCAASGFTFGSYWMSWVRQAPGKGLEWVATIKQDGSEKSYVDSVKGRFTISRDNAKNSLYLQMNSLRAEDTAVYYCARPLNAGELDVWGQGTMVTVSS VL: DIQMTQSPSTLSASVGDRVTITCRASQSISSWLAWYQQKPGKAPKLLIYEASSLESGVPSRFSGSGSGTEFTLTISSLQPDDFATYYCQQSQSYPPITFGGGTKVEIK
2. ADI-11826 Fab (Fab, V domains shown) VH: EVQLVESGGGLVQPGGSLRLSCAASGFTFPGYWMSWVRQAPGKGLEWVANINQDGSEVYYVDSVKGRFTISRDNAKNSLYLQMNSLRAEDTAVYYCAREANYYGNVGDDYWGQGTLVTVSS VL: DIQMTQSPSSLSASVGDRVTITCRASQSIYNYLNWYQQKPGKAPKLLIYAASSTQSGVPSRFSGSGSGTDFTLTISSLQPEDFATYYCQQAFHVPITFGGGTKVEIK

1: 9.37; 2: 8.42
